Each entry below carries its reported IC50.
# assayedSystem: Collagenase 3 (Homo sapiens)
Kindly answer with a numeric value in nM, unit omitted.

molecule="COc1ccc(S(=O)(=O)N2CCN(S(=O)(=O)c3sc(N)nc3C)CC2C(=O)NO)cc1 (stereo not given)" observed=2

Exam item: Could you share what IC50 was measured for COc1ccc(S(=O)(=O)N2CCN(S(=O)(=O)c3ccc(OC)cc3)C(C(=O)NO)C2)cc1 (stereo not given) , tested on Collagenase 3 (Homo sapiens)?
Marked response: 1.3

Exam item: Could you share what IC50 was measured for CCCCCCNC(=O)N1CCN(S(=O)(=O)c2ccc(OC)cc2)C(C(=O)NO)C1 (stereo not given) , tested on Collagenase 3 (Homo sapiens)?
Marked response: 1.4

Exam item: Could you share what IC50 was measured for COc1ccc(S(=O)(=O)N2CCN(C)CC2C(=O)NO)cc1 (stereo not given) , tested on Collagenase 3 (Homo sapiens)?
Marked response: 21

Exam item: Could you share what IC50 was measured for COc1ccc(S(=O)(=O)N2CCN(C(=O)[C@@H](O)C(C)C)CC2C(=O)NO)cc1 (stereo not given in full) , tested on Collagenase 3 (Homo sapiens)?
Marked response: 1
